Every entry's value here was drawn from patent US20100280227A1.

- system.tested: T1, variant human BR3-Fc fusion
- T1 construct: produced in CHO cells; also called vBR3-Fc; vhBR3-Fc
- method.description: SPR, vBR3-Fc on chip;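 also: Anti-BR3 antibodies passed over chip-bound BR3-Fc in PBS with 0.05% polysorbate 20, on and off rates fitted together globally to a 1:1 binding model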
# reported Kd; entries follow
Record the value in nM, omitting the unit from your answer.

# count of solved cases: 3
Hu2.1-94 Fab (Fab, V domains shown, Fab) VH: EVQLVESGGGLVQPGGSLRLSCAASGDSITRGYWNWVRQAPGKGLEWVGYINYSGTTYYNPSLKSRFTISRDTSKNTLYLQMNSLRAEDTAVYYCATSHNTGEMDYWGQGTLVTVSS VL: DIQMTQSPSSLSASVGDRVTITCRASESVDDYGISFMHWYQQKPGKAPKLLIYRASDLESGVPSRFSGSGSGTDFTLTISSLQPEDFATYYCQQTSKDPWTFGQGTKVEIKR | 1.67
Hu9.1-88 IgG (antibody, V domains shown, humanized IgG; also called h9.1-88) VH: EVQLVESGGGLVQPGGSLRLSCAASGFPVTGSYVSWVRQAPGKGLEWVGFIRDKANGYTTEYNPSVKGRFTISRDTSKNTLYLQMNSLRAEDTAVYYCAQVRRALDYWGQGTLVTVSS VL: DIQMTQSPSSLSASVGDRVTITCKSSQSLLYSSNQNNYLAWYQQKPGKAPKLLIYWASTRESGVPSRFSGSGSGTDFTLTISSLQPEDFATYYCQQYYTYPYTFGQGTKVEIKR | 0.2
Hu2.1-RL Fab (Fab, V domains shown, Fab) VH: EVQLVESGGGLVQPGGSLRLSCAASGDSITRGYWNWVRQAPGKGLEWVGYINYSGTTYYNPSLKSRFTISRDTSKNTLYLQMNSLRAEDTAVYYCATPHTYGAMDYWGQGTLVTVSS VL: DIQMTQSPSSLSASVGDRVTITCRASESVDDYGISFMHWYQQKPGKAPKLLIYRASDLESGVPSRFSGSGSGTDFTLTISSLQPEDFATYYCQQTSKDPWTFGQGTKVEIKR | 11.2

Entry chimeric 11G9 IgG (antibody, V domains shown, also called Ch 11G9 IgG) VH: DVQLQESGPSLVKPSQTLSLTCSVTGDSITSGYWNWIRKFPGNKLEYMGYISYSGSTYYNPSLKSRISITRDTSKNQFYLQLLSVTTEDTATYYCAGLDGLYWYFDVWGAGTLVTVSS VL: DIVMTQTPLSLPVSLGDQASISCRSSQSLVHSNGNTYLHWYLQKPGQSPKLLIYKVSNRFSGVPDRFSGSGSGTDFTLKISRVEAEDLGVYFCSQSTHVPPFTFGSGT — recorded Kd = 2.78

Kindly note the recorded Kd for Hu2.1-46 IgG (antibody, V domains shown, humanized IgG; also called h2.1-46) VH: EVQLVESGGGLVQPGGSLRLSCAASGDSITRGYWNWVRQAPGKGLEWVGYINYSGTTYYNPSLKSRFTISRDTSKNTFYLQMNSLRAEDTAVYYCANSNFYGAMDYWGQGTLVTVSS VL: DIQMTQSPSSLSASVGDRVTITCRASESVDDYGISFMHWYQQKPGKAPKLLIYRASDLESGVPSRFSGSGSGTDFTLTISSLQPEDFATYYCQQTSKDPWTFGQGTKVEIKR , which is 0.041

Noted for Hu2.1-40 Fab (Fab, V domains shown, Fab) VH: EVQLVESGGGLVQPGGSLRLSCAASGDSITRGYWNWVRQAPGKGLEWVGYINYSGTTYYNPSLKSRFTISRDTSKNTFYLQMNSLRAEDTAVYYCATTLPYGAMDYWGQGTLVTVSS VL: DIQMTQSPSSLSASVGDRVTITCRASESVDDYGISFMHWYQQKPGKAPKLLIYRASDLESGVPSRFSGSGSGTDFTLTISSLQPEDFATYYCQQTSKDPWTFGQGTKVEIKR : its Kd reads 3.2
